System: E. coli ATCC 25922
assay_method_text: MIC, agar dilution
Format: cell-based
particulars: E. coli ATCC 25922; Table IA; unit assumed
Where a name gives a salt, the structure may show the parent alone.
Antibacterial activity (MIC) overview
endpoint_label: Antibacterial activity (MIC) (µg/mL)

>>> test_value("CN(C)c1cc(NC(=O)CNCc2ccccc2)c(O)c2c1CC1CC3C(N(C)C)C(O)=C(C(N)=O)C(=O)C3(O)C(O)=C1C2=O.Cl.Cl (stereo not drawn)")
0.5
>>> test_value("CNC(C)C(=O)Nc1cc(N(C)C)c2c(c1O)C(=O)C1=C(O)[C@]3(O)C(=O)C(C(N)=O)=C(O)[C@@H](N(C)C)C3CC1C2.Cl.Cl (stereo partly drawn)")
0.5
>>> test_value("CCCCCCNCC(=O)Nc1cc(N(C)C)c2c(c1O)C(=O)C1=C(O)[C@]3(O)C(=O)C(C(N)=O)=C(O)[C@@H](N(C)C)C3CC1C2 (stereo partly drawn) [BBB, dihydrochloride]")
0.12
>>> test_value("CCN(CC)CC(=O)Nc1cc(N(C)C)c2c(c1O)C(=O)C1=C(O)[C@]3(O)C(=O)C(C(N)=O)=C(O)[C@@H](N(C)C)C3CC1C2.Cl.Cl (stereo partly drawn)")
0.5
